target.desc: CDCA8
assay.summary: pooled miR-30 sensor sort-seq; sequence = guide strand; also: reference of the scale not given here
cond: shRNA
endpoint: sensor-assay potency score (higher = more potent)

- macromolecule.sequence: "TTCGTATTTCCACTTCACGGTC"
  obs.value: -0.813
- macromolecule.sequence: "TATCTGAGCCTAAACCTCCCGG"
  obs.value: -0.819
- macromolecule.sequence: "TTGGTCTTCAGTAAACAGGGAT"
  obs.value: -0.3
- macromolecule.sequence: "TCTACCTGTATTACCTTTCGTG"
  obs.value: -0.22
- macromolecule.sequence: "TAAACATAAAACACTGCTCCAC"
  obs.value: -0.305
- macromolecule.sequence: "TTCACGGTCGAAGTCTTTCAGA"
  obs.value: -1.11
- macromolecule.sequence: "TTGCTTGATTCGTATTTCCACT"
  obs.value: -0.831

====

target.desc: ZNF259
assay.summary: pooled miR-30 sensor sort-seq; sequence = guide strand
cond: shRNA
endpoint: sensor-assay potency score (higher = more potent)

- macromolecule.sequence: "TCAGTCTTCACCACTTCTCTGT"
  target.desc: "ZNF259"
  obs.value: 0.0434
- macromolecule.sequence: "TTGTACTAGCTTCATGTTGGTC"
  target.desc: "ZNF259"
  obs.value: -0.732
- macromolecule.sequence: "TAACACAATAGGCTCACACTTG"
  target.desc: "ZNF259"
  obs.value: -0.434
- macromolecule.sequence: "TTCAGTTTGACAATGAACTCAT"
  target.desc: "ZNF259"
  obs.value: 0.875
- macromolecule.sequence: "TTCGATGATCTGGTCCATCTTC"
  target.desc: "ZNF259"
  obs.value: -0.231
- macromolecule.sequence: "TTCTGAGATCTTCCTCTTCTGG"
  target.desc: "ZNF259"
  obs.value: -1.55

====

The entries below are paired with their reported sensor-assay potency score (higher = more potent).
target.desc: ALDH1A1
assay.summary: pooled miR-30 sensor sort-seq; sequence = guide strand
cond: shRNA
endpoint: sensor-assay potency score (higher = more potent)

- macromolecule.sequence: "TTCATTGACTCCATTGTCGCCA"
  obs.value: 0.315
- macromolecule.sequence: "TGTCTTTGGTAAACACTCCTGC"
  obs.value: 0.136
- macromolecule.sequence: "TAATTCTTTCAGAAGAAGCTAC"
  obs.value: -0.0936
- macromolecule.sequence: "TTGAATCTTCAAATCGGTGAGT"
  obs.value: 0.0111
- macromolecule.sequence: "TGATTTGCTGCACTGGTCCAAA"
  obs.value: -0.586
- macromolecule.sequence: "TGCCTTGTCAACATCCTCCTTA"
  obs.value: 0.465
- macromolecule.sequence: "TAACATTAGAGAACACTGTGGG"
  obs.value: 0.962
- macromolecule.sequence: "TAGCAATTCACCCACACTGTTC"
  obs.value: -1.07
- macromolecule.sequence: "TTAGCTATTGAAGAGCTTCTCT"
  obs.value: 0.445
- macromolecule.sequence: "TTAAAATCTACTATATTAGTGA"
  obs.value: 0.534
- macromolecule.sequence: "TTAGAGAACACTGTGGGCTGGA"
  obs.value: 0.618
- macromolecule.sequence: "TATATTAGTGACTGTAAGGAGA"
  obs.value: -0.658
- macromolecule.sequence: "TTGGTAAACACTCCTGCTGATA"
  obs.value: -1.11
- macromolecule.sequence: "TGTAACATTAGAGAACACTGTG"
  obs.value: 0.545
- macromolecule.sequence: "TATTGTTCCTTGTCAATCTGAG"
  obs.value: 0.207
- macromolecule.sequence: "AATACTAATATGATTTAGCTTA"
  obs.value: -0.152

====

target.desc: RAD9A
assay.summary: pooled miR-30 sensor sort-seq; sequence = guide strand
cond: shRNA
The threshold is inclusive: sensor-assay potency score (higher = more potent) of exactly -0.6 counts as yes; values below receive no.

- macromolecule.sequence: "TGTGCTGTGAGCCTGGAGCTGA"
  label.class: "yes"
- macromolecule.sequence: "TCATTGGCAAAGTCGTCCGGGT"
  label.class: "no"
- macromolecule.sequence: "TCAAGTTTGCTGACTCTGCAAA"
  label.class: "no"
- macromolecule.sequence: "TGAATCAATAGCAGCGTCCAGT"
  label.class: "no"
- macromolecule.sequence: "TCACATCTAAGACACTGCCTGG"
  label.class: "yes"
- macromolecule.sequence: "TTCATCAGGATCTTACAGCGCA"
  label.class: "yes"
- macromolecule.sequence: "TTTTTCCACCGTCTTCTCCAGC"
  label.class: "no"

====

target.desc: ATG13
assay.summary: pooled miR-30 sensor sort-seq; sequence = guide strand
cond: shRNA
The entries below are paired with their reported sensor-assay potency score (higher = more potent).
endpoint: sensor-assay potency score (higher = more potent)

- macromolecule.sequence: "TTGCTAAGTTGAACCAATCTGA"
  target.desc: "ATG13"
  obs.value: 0.054
- macromolecule.sequence: "AAATTTAATAAACTTGTCCAGG"
  target.desc: "ATG13"
  obs.value: -1.15
- macromolecule.sequence: "TTCAGCAGCAATGACAGTCTGT"
  target.desc: "ATG13"
  obs.value: 0.524
- macromolecule.sequence: "TTGGAGAAGATGATGAACGAGT"
  target.desc: "ATG13"
  obs.value: 0.0356
- macromolecule.sequence: "TTTATCACACTTTTCATTCATT"
  target.desc: "ATG13"
  obs.value: -0.513
- macromolecule.sequence: "TATCATAACAAAGTCATCATGG"
  target.desc: "ATG13"
  obs.value: 0.359

====

target.desc: TMEM109
assay.summary: pooled miR-30 sensor sort-seq; sequence = guide strand
cond: shRNA
The threshold is inclusive: sensor-assay potency score (higher = more potent) of exactly -0.4 counts as y; values below receive n.

- macromolecule.sequence: "TCGCACAGATCGACCTATCTGG"
  label.class: "y"
- macromolecule.sequence: "TTGAACACATGCTTTCCCCATG"
  label.class: "n"
- macromolecule.sequence: "TTTCTCTGTTTCTCTTGGCTAG"
  label.class: "y"
- macromolecule.sequence: "TTTAAAACCAACCAAGCACTGA"
  label.class: "y"
- macromolecule.sequence: "TTTGAACACATGCTTTCCCCAT"
  label.class: "n"
- macromolecule.sequence: "TGTGATTCCACATCAAACCTGA"
  label.class: "y"
- macromolecule.sequence: "TTCCACATCAAACCTGAACAGT"
  label.class: "n"

====

target.desc: FAM203A
assay.summary: pooled miR-30 sensor sort-seq; sequence = guide strand
cond: shRNA
The threshold is inclusive: sensor-assay potency score (higher = more potent) of exactly -0.8 counts as T; values below receive F.

- macromolecule.sequence: "TCCAACTGCTCCTGCTCCCTGC"
  label.class: "F"
- macromolecule.sequence: "AGGTCCAAGCAACCACTCGTGA"
  label.class: "F"
- macromolecule.sequence: "ATGGCTTCAACAAGCATCTTGC"
  label.class: "T"
- macromolecule.sequence: "TGATGTCGGTGCTCGAAGCAGC"
  label.class: "T"
- macromolecule.sequence: "TAGCCGGGCGTGCACAGCGCGC"
  label.class: "F"

====

target.desc: SLC29A3
assay.summary: pooled miR-30 sensor sort-seq; sequence = guide strand
cond: shRNA
The entries below are paired with their reported sensor-assay potency score (higher = more potent).
endpoint: sensor-assay potency score (higher = more potent)

- macromolecule.sequence: "TTGCATCTCGCTGTCAGCTGGA"
  obs.value: 0.563
- macromolecule.sequence: "TTTGTAATAACTCTAGGGCGAA"
  obs.value: -1.16
- macromolecule.sequence: "TTTGAACATCCAGTACTCCTTG"
  obs.value: 0.313
- macromolecule.sequence: "TTACAGAGCACGAAGAGGGGGA"
  obs.value: 0.172
- macromolecule.sequence: "TATTTCTTCTTCAACTGTCTCA"
  obs.value: 0.0304
- macromolecule.sequence: "TTGCGGAGTTTGAACATCCAGT"
  obs.value: -0.979
- macromolecule.sequence: "TTTGCTTGCATCTCGCTGTCAG"
  obs.value: 0.244
- macromolecule.sequence: "TATGACTGGAATATCTGCCTTG"
  obs.value: 0.374
- macromolecule.sequence: "TTGAACATCCAGTACTCCTTGG"
  obs.value: -0.255
- macromolecule.sequence: "TTGACATGTTGTAAACAGGAAC"
  obs.value: -1.02

====

target.desc: LHFPL5
assay.summary: pooled miR-30 sensor sort-seq; sequence = guide strand
cond: shRNA
The threshold is inclusive: sensor-assay potency score (higher = more potent) of exactly -0.3 counts as y; values below receive n.

- macromolecule.sequence: "AACATAAGTAACACATTTCTGA"
  target.desc: "LHFPL5"
  label.class: "y"
- macromolecule.sequence: "TAACACATTTCTGAAGCTGGTA"
  target.desc: "LHFPL5"
  label.class: "y"
- macromolecule.sequence: "TTGCAGATGAAGAACAGGCTGA"
  target.desc: "LHFPL5"
  label.class: "y"
- macromolecule.sequence: "TTCTGGTTGAGTCAGTGTGGGC"
  target.desc: "LHFPL5"
  label.class: "n"
- macromolecule.sequence: "TTGAACATAAGTAACACATTTC"
  target.desc: "LHFPL5"
  label.class: "n"
- macromolecule.sequence: "TTGTCTCAGGAGACTGTCCAGT"
  target.desc: "LHFPL5"
  label.class: "n"

# credit: the OligoGym collection
